The reported measurements were obtained from patent US10111890B2.

- PROTOCOL_DETAILS: Phase 1 multiple oral dose (300, 450, 600 mg once daily x 5 days) crossover study: plasma pharmacokinetics
- CONDITION_DESCRIPTION: human, plasma, po, 600 mg, Mean AUC0-24, 600 mg oral once daily; Day 1
ASSAY_ENDPOINT: AUC(0-t) (ng·h/mL)

INSERT INTO assay_data (mol, assay_endpoint, unit_tag, observed_value) VALUES
  ('CN(C)c1cc(CNCC(C)(C)C)c(O)c2c1C[C@H]1C[C@H]3[C@H](N(C)C)C(O)=C(C(N)=O)C(=O)[C@@]3(O)C(O)=C1C2=O', 'AUC(0-t)', 'ng·h/mL', 10000);

====

- PROTOCOL_DETAILS: Phase 1 food-effect crossover study: plasma PK after single 300 mg oral dose
- Type: in vivo, human
- CONDITION_DESCRIPTION: human, plasma, po, 300 mg, Treatment B: high-fat nondairy meal 4 h before dosing, read-out: Cmax, Geometric LS Mean
ASSAY_ENDPOINT: Cmax (ng/mL)

INSERT INTO results (mol, assay_endpoint, observed_value) VALUES
  ('CN(C)c1cc(CNCC(C)(C)C)c(O)c2c1C[C@H]1C[C@H]3[C@H](N(C)C)C(O)=C(C(N)=O)C(=O)[C@@]3(O)C(O)=C1C2=O', 'Cmax', 560);

====

- PROTOCOL_DETAILS: Phase 1 multiple oral dose (300, 450, 600 mg once daily x 5 days) crossover study: plasma pharmacokinetics
- CONDITION_DESCRIPTION: human, plasma, po, 450 mg, Mean Cmax, 450 mg oral once daily; Day 1
ASSAY_ENDPOINT: Cmax (ng/mL)

INSERT INTO results (mol, unit_tag, observed_value) VALUES
  ('CN(C)c1cc(CNCC(C)(C)C)c(O)c2c1C[C@H]1C[C@H]3[C@H](N(C)C)C(O)=C(C(N)=O)C(=O)[C@@]3(O)C(O)=C1C2=O', 'ng/mL', 874);

====

- PROTOCOL_DETAILS: Phase 1 multiple oral dose study: urine pharmacokinetics
- Type: in vivo, human
- CONDITION_DESCRIPTION: human, in vivo, 300 mg; Day 5 (n = 3); read-out: CLr, Mean (CV) (converted)
ASSAY_ENDPOINT: CL renal (mL/min)

INSERT INTO assay_data (mol, unit_tag, observed_value) VALUES
  ('CN(C)c1cc(CNCC(C)(C)C)c(O)c2c1C[C@H]1C[C@H]3[C@H](N(C)C)C(O)=C(C(N)=O)C(=O)[C@@]3(O)C(O)=C1C2=O', 'mL/min', 54.7);

====

- PROTOCOL_DETAILS: Phase 1 multiple oral dose (300, 450, 600 mg once daily x 5 days) crossover study: plasma pharmacokinetics
- CONDITION_DESCRIPTION: human, in vivo, po, 450 mg, Mean T1/2, 450 mg oral once daily; Day 5
- Text: Thus the study was designed as a Phase 1, randomized, double-blind, 3-period, crossover study in healthy adult subjects. The study consisted of a screening period (Day −21 through Day −2), 3 baseline periods (Day −1 of each period), 3 treatment periods (Day 1 through Day 6 of each period), and a study completion visit (within 6 to 10 days after the last dose of study drug in Period 3). There was a washout of at least 5 days between the last dose in one period and the first dose in the next period. […]
ASSAY_ENDPOINT: half-life (h)

INSERT INTO assay_data (mol, unit_tag, observed_value) VALUES
  ('CN(C)c1cc(CNCC(C)(C)C)c(O)c2c1C[C@H]1C[C@H]3[C@H](N(C)C)C(O)=C(C(N)=O)C(=O)[C@@]3(O)C(O)=C1C2=O', 'h', 16.8);
